Test system: HCC1143
test summary: drug sensitivity score (DSS), CellTox Green (DSS (AUC-based score)); higher = stronger drug effect (viability inhibition or cytotoxicity); extreme values may be limits of the assay
experimental conditions: incubation time: 72 h
Each entry below lists one item and its recorded drug sensitivity score value.
The answer should be a number; do not append a unit.

Below, 5 compounds whose answers are already recorded.
>>> number("COc1ccc(C2=N[C@@H](c3ccc(Cl)cc3)[C@@H](c3ccc(Cl)cc3)N2C(=O)N2CCNC(=O)C2)c(OC(C)C)c1")
0
>>> number("CCS(=O)(=O)c1cccc(-c2cc(C(=O)NC3CCN(C)CC3)c(C)c3[nH]c4ncc(C)cc4c23)c1")
0
>>> number("C[C@@H]1C=C2C(=O)O[C@@H]3CC[C@H](C1)[C@]23O")
0
>>> number("COc1cccc2c1C(=O)c1c(O)c3c(c(O)c1C2=O)C[C@@](O)(C(C)=O)C[C@@H]3O[C@H]1C[C@H](N)[C@H](O)[C@H](C)O1")
0
>>> number("CS(=O)(=O)OCCCCOS(C)(=O)=O")
0

Problem: Any idea what drug sensitivity score was measured for "COc1ncc(-c2ccc3nccc(-c4ccnnc4)c3c2)cc1NS(=O)(=O)c1ccc(F)cc1F" ?
Solution: 0

Problem: Any idea what drug sensitivity score was measured for "O=C(c1ccc(OCCN2CCCCC2)cc1)c1c(-c2ccc(O)cc2)sc2cc(O)ccc12" ?
Solution: 0

Problem: Any idea what drug sensitivity score was measured for "COC1=CC(c2cc3ccccc3[nH]2)=N/C1=C\c1[nH]c(C)cc1C" ?
Solution: 0

Problem: Any idea what drug sensitivity score was measured for "O=c1[nH]c(=O)n([C@H]2C[C@H](O)[C@@H](CO)O2)cc1F" ?
Solution: 0
